# method: Volume of distribution in dog (n=8; dose 0.25 mg/kg iv or 0.5 mg/kg po)
# Type: ADME, organism-based, Canis lupus familiaris
# run_conditions: in vivo, read-out: Vz
measured_metric: Vd (L/kg)
Field format: number, assumed L/kg, no unit text.

Here are 2 compounds together with their reported answers.
>  <structure_notation>
O=C(NCC1CCN(CCCS(=O)(=O)N2CCN(C(=O)c3ccco3)CC2)CC1)c1cccc2c1OCCO2

>  <readout_number>
0.2

$$$$
>  <structure_notation>
O=C(NCC1CCN(CCCS(=O)(=O)N2CCN(C3CCCC3)CC2)CC1)c1cccc2c1OCCO2

>  <readout_number>
9.3

$$$$

Please turn your attention to the following entry.
Give Vd for O=C(NCC1CCN(CCCS(=O)(=O)N2CCNCC2)CC1)c1cccc2c1OCCO2
34
